Test: Chronic tolerability studies
Details: in vivo
RECORDED_ENDPOINT: MTD

Any idea what MTD was measured for CC(=O)O[C@@]12CO[C@@H]1C[C@H](O)[C@@]1(C)C(=O)[C@H](O)C3=C(C)[C@@H](OC(=O)[C@H](O)[C@@H](NC(=O)OC(C)(C)C)c4ccccc4)C[C@@](O)([C@@H](OC(=O)c4ccccc4)[C@H]21)C3(C)C [docetaxel] ?
20 mg/kg
